Origin of measurements: patent US20240376363A1

Quick reference for Heat of Vaporization among some molecules
- Method: heat of vaporization
- Format: physicochemical
Could you give me the number in kcal/mol? Just the number is fine.

For orientation, consider the following solved cases.
smiles=FC1=C(Oc2ccccc2)C(F)(F)C1(F)F observed=10
smiles=FC(F)(F)OC1=C(OC(F)(F)F)C(F)(F)C1(F)F observed=7.65
smiles=FC(F)(F)C(OC1=C(OC(C(F)(F)F)C(F)(F)F)C(F)(F)C1(F)F)C(F)(F)F observed=8.13
smiles=FC(F)(F)COC1=C(Cl)C(F)(F)C1(F)F observed=9.08
smiles=FC1(F)C(Oc2ccccc2)=C(Oc2ccccc2)C1(F)F observed=17.9

--- query ---
Exercise: # lookup: Heat of Vaporization of FC1=C(OC(C(F)(F)F)C(F)(F)F)C(F)(F)C1(F)F
Key: 7.41

----------
- Method: normal boiling point
// returns 0 (no) unless Normal Boiling Point is strictly below 50 °C, in which case 1 (yes)

Worked cases, answers included:
smiles=COC1=C(Cl)C(F)(F)C1(F)F assigned_category="0 (no)"
smiles=FC1(F)C(Cl)=C(Cl)C1(F)F assigned_category="0 (no)"
smiles=COC1=C(OC)C(F)(F)C1(F)F assigned_category="0 (no)"

Exercise: hey, is Normal Boiling Point for FC1=C(Cl)CC1(F)F lower than 50 °C or not?
Key: 0 (no)

Exercise: hey, is Normal Boiling Point for FC(F)(F)OC1=C(OC(F)(F)F)C(F)(F)C1(F)F lower than 50 °C or not?
Key: 0 (no)

Exercise: hey, is Normal Boiling Point for FC1=CCC1(F)F lower than 50 °C or not?
Key: 1 (yes)
